target: Tubulin (Sus scrofa, UniProt P02554+P02550); assay: Inhibition of porcine brain tubulin polymerization
result_type: IC50 (µM)
Quick note: give the figure in µM, leave out the unit.

Recorded IC50 for `COc1ccc2c(c1)[nH]c(=O)n2Cc1cc(OC)c(OC)c(OC)c1` , please?
16.4

Please look up its IC50: `COc1ccc2c(c1)CC(=O)N2Cc1cc(OC)c(OC)c(OC)c1`
31.2

Quick one: IC50 for `COc1ccc2c(c1)[nH]c(=O)n2C(=O)c1cc(OC)c(OC)c(OC)c1` ?
19.14

----------
IC50 for assorted molecules
molecular target: Tubulin (Sus scrofa, UniProt P02554+P02550); experiment: Inhibition of porcine brain tubulin polymerization

COc1ccc2c(c1)oc(=O)n2Cc1cc(OC)c(OC)c(OC)c1 | > 40 µM

Sample `COc1ccc2c(c1)n(C)c(=O)n2Cc1cc(OC)c(OC)c(OC)c1` — what was its IC50?
> 40 µM
